Catalogue of molecules with associated half-life
assay: Half life in rat at 3 mg/kg, po and 1 mg/kg, iv; type: ADME, organism-based; conditions: in vivo
Value expressed in h; do not type the unit.

Solved entries (count: 2):
CS(=O)(=O)c1ccccc1C(=O)N1CCC(N(C2CC2)S(=O)(=O)c2cccc(C(F)(F)F)c2)CC1: 0.91
CS(=O)(=O)c1ccc(F)cc1C(=O)N1CCC(N(C2CC2)S(=O)(=O)c2cccc(C(F)(F)F)c2)CC1: 1.3

Attention now shifts to the item below.
Problem: Tell me measured half-life for `O=C(c1ccccc1OC(F)(F)F)N1CCC(N(C2CC2)S(=O)(=O)c2cccc(C(F)(F)F)c2)CC1` please.
Solution: 1.6

The values you see were collected from ChEMBL document CHEMBL2176883.
